Target: human ether-à-go-go-related gene (hERG) potassium channel (human, UniProt Q12809);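 also: peak tail current of the secondary pulse compared with the same well before compound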
Sequence (Q12809 whole entry, looked up): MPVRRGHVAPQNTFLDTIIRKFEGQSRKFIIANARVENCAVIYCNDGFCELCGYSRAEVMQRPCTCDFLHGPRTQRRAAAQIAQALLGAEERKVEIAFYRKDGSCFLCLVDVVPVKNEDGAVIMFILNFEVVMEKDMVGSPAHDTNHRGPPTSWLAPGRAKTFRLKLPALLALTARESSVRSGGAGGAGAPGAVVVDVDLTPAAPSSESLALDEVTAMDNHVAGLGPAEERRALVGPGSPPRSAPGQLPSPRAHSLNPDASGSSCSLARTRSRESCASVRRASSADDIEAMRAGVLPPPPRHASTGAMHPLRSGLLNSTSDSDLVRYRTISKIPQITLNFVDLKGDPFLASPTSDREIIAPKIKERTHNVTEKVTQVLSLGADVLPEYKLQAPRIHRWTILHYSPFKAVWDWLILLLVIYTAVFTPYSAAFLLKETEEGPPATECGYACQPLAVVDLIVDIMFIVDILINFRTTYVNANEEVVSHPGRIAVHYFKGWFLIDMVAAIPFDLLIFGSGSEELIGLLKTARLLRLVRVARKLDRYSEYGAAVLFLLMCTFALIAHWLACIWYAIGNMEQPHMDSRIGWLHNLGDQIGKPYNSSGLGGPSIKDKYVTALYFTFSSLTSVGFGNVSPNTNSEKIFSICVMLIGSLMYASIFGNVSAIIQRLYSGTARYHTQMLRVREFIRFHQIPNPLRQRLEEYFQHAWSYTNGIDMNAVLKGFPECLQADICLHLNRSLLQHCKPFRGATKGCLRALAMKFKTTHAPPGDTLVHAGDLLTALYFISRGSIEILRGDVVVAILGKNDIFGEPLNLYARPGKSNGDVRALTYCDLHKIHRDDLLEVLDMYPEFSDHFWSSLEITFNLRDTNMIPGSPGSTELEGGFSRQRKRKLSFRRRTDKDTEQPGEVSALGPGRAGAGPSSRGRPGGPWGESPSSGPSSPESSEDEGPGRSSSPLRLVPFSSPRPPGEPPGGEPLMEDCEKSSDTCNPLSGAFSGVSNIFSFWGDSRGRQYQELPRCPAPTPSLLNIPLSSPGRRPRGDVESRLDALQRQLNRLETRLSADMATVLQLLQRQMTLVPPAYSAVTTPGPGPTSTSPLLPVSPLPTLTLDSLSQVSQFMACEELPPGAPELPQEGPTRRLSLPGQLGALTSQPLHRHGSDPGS
Experiment: primary screen, population patch clamp on CHO cells stably expressing hERG; higher = less effect of the substance
Screen size: about 310,000 compounds; about 14,000 (4.5%) showed an effect of 50% or more. The effect is printed as a negative number. The full list was thinned out, with strong results kept by preference.
QUANTITY NAME: hERG current change (%, negative = inhibition) at 10uM (%)
Write the value in % as a bare number.

Previously resolved entries follow.
COMPOUND	REPORTED MEASUREMENT
O=c1c2ccccc2n2c(-c3cccc(Cl)c3)nnc2n1Cc1ccccc1	-11.8
CC(OC(=O)Cc1n[nH]c(=O)c2ccccc12)C(=O)Nc1ccc(F)cc1Cl (stereo not drawn)	2.32

Recorded hERG current change (%, negative = inhibition) at 10uM of c1cnc2ccc(C(c3nnnn3C3CCCCC3)N3CCN4CCCC4C3)cc2c1 (stereo not drawn) , please.
-109

What measured hERG current change (%, negative = inhibition) at 10uM goes with "CCN(CC)S(=O)(=O)c1cccc(-c2nnc(SCc3nnc(-c4ccccc4)o3)n2C)c1" ?
-67.4

Item "CCOC(=O)c1cnc(COc2ccccc2Cl)[nH]c1=O" has what recorded hERG current change (%, negative = inhibition) at 10uM?
16

I'd like to know its hERG current change (%, negative = inhibition) at 10uM. The compound in question is CCC(C)NC(=O)C1CCN(S(=O)(=O)N2CCOCC2)CC1 (stereo not drawn)
22.8

Look up hERG current change (%, negative = inhibition) at 10uM: Cc1cccc(-c2nnc(SCC3CNC(=O)O3)n2-c2ccc(Cl)cc2)c1 (stereo not drawn)
-40.3

Return reported hERG current change (%, negative = inhibition) at 10uM; argument: "COc1ccc(CN(C)C(=O)COC(=O)c2c(C)nn(-c3ccc(F)cc3)c2Cl)cc1"
-71.1

----------
Target: human ether-à-go-go-related gene (hERG) potassium channel (human, UniProt Q12809);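 also: peak tail current of the secondary pulse compared with the same well before compound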
Experiment: primary screen, population patch clamp on CHO cells stably expressing hERG; higher = less effect of the substance
Hit rate of the full screen: of about 310,000 compounds, about 14,000 (4.5%) showed an effect of 50% or more. The effect is printed as a negative number. Many of the other results were omitted from the sample, so strong results are more common in it than they were.
hERG current change (%, negative = inhibition) at 10uM values by entry
Numbers only; they are read as %.

MOLECULE	REPORTED MEASUREMENT
COc1ccc(C2C(C#N)=C(N)Oc3c2c(-c2ccccc2)nn3-c2ccccc2)c(OC)c1OC (stereo not drawn)	-1.15
C#CCSc1nc(-c2ccccc2)cc(C(F)(F)F)c1C#N	7.12

In the following, a different molecule is considered.
What does the data say about its hERG current change (%, negative = inhibition) at 10uM? Entry: "Cc1cccc(NS(=O)(=O)c2ccc3c(c2)NC(=O)CO3)c1C"
3.88

----------
Reported values of hERG current change (%, negative = inhibition) at 10uM for individual entries
Target: human ether-à-go-go-related gene (hERG) potassium channel (human);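 also: peak tail current of the secondary pulse compared with the same well before compound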
Experiment: primary screen, population patch clamp on CHO cells stably expressing hERG; higher = less effect of the substance
Hit rate of the full screen: of about 310,000 compounds, about 14,000 (4.5%) showed an effect of 50% or more. Effects have a minus sign here. What follows is part of a selection rich in strong results, with near analogues and random picks from the rest.
Give a bare numeral; the unit % is implied.

The examples below pair each entry with its known result.
COMPOUND	REPORTED MEASUREMENT
O=C(NCc1cccs1)c1cnc(Cl)c(Cl)c1	11.7
CCOC(=O)C1=C(N)Oc2cc(O)ccc2C1c1cccc([N+](=O)[O-])c1 (stereo not shown)	-11.3
COC(=O)c1nnn(-c2nonc2N)c1CSCCO	14.6

// next item, hERG current change (%, negative = inhibition) at 10uM requested
Bench note: what hERG current change (%, negative = inhibition) at 10uM did Brc1ccc2nc(-c3cccs3)c(NCC3CCCO3)n2c1 (stereo not shown) show?
-52.6
